Hey, just so you know, these numbers are from patent US20160264649A1.

Target: HIV-1 Env of isolate MGRM-D-004 (subtype D) (HIV-1)
Assay: cell-based or functional assay
Consider the following binders and their measured IC50 (neutralization) readings.
Report the value in µg/mL with no unit label.

Known IC50 (neutralization) results, listed for orientation:
Binder: PGT-128 (antibody, V domains shown) VH: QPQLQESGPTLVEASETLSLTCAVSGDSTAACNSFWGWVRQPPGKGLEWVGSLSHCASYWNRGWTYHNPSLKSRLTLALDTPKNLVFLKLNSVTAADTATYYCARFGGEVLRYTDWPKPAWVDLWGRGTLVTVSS VL: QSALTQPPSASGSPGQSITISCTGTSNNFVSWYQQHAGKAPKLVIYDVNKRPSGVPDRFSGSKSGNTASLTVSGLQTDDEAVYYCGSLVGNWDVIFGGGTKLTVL
IC50 (neutralization) / µg/mL: 24.9
//
Binder: PGT-125 (antibody, V domains shown) VH: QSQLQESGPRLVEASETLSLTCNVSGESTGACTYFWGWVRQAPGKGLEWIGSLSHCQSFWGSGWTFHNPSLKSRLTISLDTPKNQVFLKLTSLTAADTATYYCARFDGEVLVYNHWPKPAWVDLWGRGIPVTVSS VL: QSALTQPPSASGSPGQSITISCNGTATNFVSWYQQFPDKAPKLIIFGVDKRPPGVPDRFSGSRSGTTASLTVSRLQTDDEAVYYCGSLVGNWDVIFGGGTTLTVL
IC50 (neutralization) / µg/mL: 0.371

We now examine a further binder.
[ask] Fill in: IC50 (neutralization) of PGT-130 (antibody, V domains shown) VH: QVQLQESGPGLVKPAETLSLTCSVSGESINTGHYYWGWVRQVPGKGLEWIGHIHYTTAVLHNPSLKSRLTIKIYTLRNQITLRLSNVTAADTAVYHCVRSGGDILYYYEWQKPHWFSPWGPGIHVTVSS VL: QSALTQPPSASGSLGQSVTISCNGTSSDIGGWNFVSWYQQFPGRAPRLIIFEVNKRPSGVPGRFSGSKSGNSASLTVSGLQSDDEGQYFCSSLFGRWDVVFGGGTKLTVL is ___
[reply] 1.21
